Target or system Lysine-specific histone demethylase 1A (Homo sapiens, UniProt O60341); metric IC50; compiled from varied reports.

| compound | IC50 |
| --- | --- |
| Cn1c(N2CCC(N)CC2)nc(-c2ccc(C#N)c(F)c2)c(-c2ccc(C(F)(F)F)nc2)c1=O | < 100 nM |
| Cc1ccc(-c2ncc(OC[C@@H]3CCNC3)cc2-c2ccc(C#N)cc2)cc1 | 10 nM |
| COCCOc1cc2ncnc(Nc3ccccc3)c2cc1OCCOC | > 50000 nM |
| Cn1c(N2CCC(N)CC2)nc(-c2ccc(C#N)c(F)c2)c(-c2ccc3c(cnn3C)c2)c1=O | < 100 nM |
| Cc1cc(NCCCn2ccnc2)n2nc(SCc3ccccc3)nc2n1 | > 10000 nM |
| Cc1cc(NNC(N)=S)n2nc(SCc3ccccc3)nc2n1 | 154 nM |
| Oc1ccc(C2CNCCc3c2cc(O)c(O)c3Cl)cc1 (stereo unspecified) | 890 nM |
| N#Cc1ccc(-c2cc3c(C(=O)N4CCC(N)CC4)c[nH]c3cc2-c2ccoc2)cc1 | 969 nM |
| Cl.N[C@@H]1C[C@H]1c1ccc(NC(=O)c2ccc(O)c3ncccc23)cc1 (relative stereo) | < 1000 nM |
| Cc1ccc(-c2cc3[nH]cc(C(=O)NC4CCNC4)c3cc2-c2ccc(C(N)=O)cc2)cc1 (stereo unspecified) | 24000 nM |
| Cc1cc(Nc2ccc(C(=O)/C=C/c3cccs3)cc2)n2nc(SCc3nc4ccccc4[nH]3)nc2n1 | > 10000 nM |
| Cc1ccc(Nc2cc(C)nc3nc(SCc4ccccc4)nn23)cc1 | > 10000 nM |
| CC(=O)Nc1ccc(S(=O)(=O)n2cc(C(=O)N3CCC(N)CC3)c3cc(-c4ccc(C#N)cc4)c(-c4ccc(C)cc4)cc32)cc1 | 165 nM |
| Cc1cccc(NC(=O)C2CC3OC2C(c2ccc(O)cc2)=C3c2ccc(O)cc2)n1 (stereo unspecified) | > 50000 nM |
| O=S(=O)(Oc1cccc2cccnc12)C1CC2OC1C(c1ccc(O)cc1)=C2c1ccc(O)cc1 (stereo unspecified) | > 50000 nM |
| Cc1cc(N2CCOCC2)n2nc(SCc3ccccc3)nc2n1 | > 10000 nM |
| CC/C(=C\c1ccccc1)[C@@H]1C[C@H]1NC1CC2(C1)CN(CCO)C2 | < 3 nM |
| Cc1ccc(-c2cc3c(cc2-c2ccc(C#N)cc2)c(C(=O)N2CCC(N)CC2)cn3C2CC2)cc1 | 18 nM |
| C#CCSc1nc(Nc2ccccc2Cl)c(C#N)c(-c2ccccc2)n1 | > 125000 nM |
| COCCOc1cc2ncnc(Nc3ccc4c(c3)OCO4)c2cc1OCCOC | > 50000 nM |
| COCCOc1cc2ncnc(Oc3cccc(Cl)c3)c2cc1OCCOC | > 50000 nM |
| Cc1cc(-c2cnn(C)c2)cc(C2CCN(C(=O)c3cc(C(C)C)n[nH]3)C2)n1 (racemic) | > 25000 nM |
| CCc1ccc(-c2cc3[nH]cc(C(=O)N4CCC(N)CC4)c3cc2-c2ccc(C#N)cc2)cc1 | 123 nM |
| Cc1ccc(Nc2cc(C)nc3nc(SCc4nc5ccccc5[nH]4)nn23)cc1 | > 10000 nM |
| O=C(/C=C/c1ccc(CNC2CC2c2ccccc2)cc1)NO (stereo unspecified) | 2210 nM |
| COc1ccc(/C=N/NC2NC(SCC(C)C)=NC(c3ccc(OC)cc3)=C2C#N)cc1 (stereo unspecified) | 956 nM |
| Cc1ccc(-c2cc3[nH]cc(C(=O)N4CCC(N)CC4)c3cc2-c2ccc(C#N)cc2)c(C)c1 | 118 nM |
| COC(=O)c1ccnc(-c2cc(C(=O)O)ccn2)c1 | > 100000 nM |
| C#CCSc1nc(Nc2ccc(Cl)cc2)c(C#N)c(-c2ccccc2)n1 | > 125000 nM |
| Cc1ccc(-c2cc3[nH]cc(C(=O)N4CCC(N)CC4)c3cc2-c2ccc(C(N)=O)cc2)cc1 | 22000 nM |
| COCCOc1cc2ncnc(Oc3ccc(OC)cc3)c2cc1OCCOC | > 50000 nM |
